Cited source for all entries: the supplement of paper PMC6555819

PBM binding z-score for assorted sequences
Tested on: LXRb:RXRa (NR concentration 270 nM, RXRa partner concentration 90 nM)
assay explanation: PBM binding z-score (relative to random genomic background probes); higher = stronger binding; sequences stand for … in GC…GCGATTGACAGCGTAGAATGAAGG
reported endpoint: PBM binding z-score

| sequence input | assay value |
| --- | --- |
| TCGAGTAGGTTACGGGGGCATTCACGGATGAAGA | 4.92 |
| CCTAGCAGGCCACGGTCACTCAAGCATTTCGCTT | 0.0634 |
| ATCTAAAGGTCGAAGGTGAGTATACCCACCCGAA | 3.2 |
| TCGGGTAGGTTACGGGGGCATTCAGGGATGAAGA | 5.75 |
| AGTCAAATTTCATCTAGGTAACGTAAGATATGCT | 0.0477 |
| AGCTCTAGGTAAAAGTTCAGTGAATCCCGAGGAT | 0.702 |
| CCTTACGGGTCGCTGACAGGTTATAGCATTTGGA | 0.781 |
| CCGAGTAGGTTAGGAGGGGGCATTCAGTGCGAAT | 5.24 |
| ATATGTAGGTAAGGGTCATTCAGAAAGTAGGGAA | 4.24 |
| ATCGAACGGTCGAGGTGAGTATAGAGAAAGGGAA | -0.34 |
| CGAACTAGGTCAGAACAGTACAGTGAAGGATGAT | 0.623 |
| CCGAGTTGGTTACGAGGGGGCATTCAGTGCGAAT | 4.27 |

###

Tested on: LXRb:RXRa (NR concentration 270 nM, RXRa partner concentration 90 nM)
assay explanation: PBM binding z-score (relative to random genomic background probes); higher = stronger binding; sequences stand for … in GC…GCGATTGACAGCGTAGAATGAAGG
PBM binding z-score for assorted sequences
reported endpoint: PBM binding z-score

| sequence input | assay value |
| --- | --- |
| CCGAGTAGGTTACGAGGGGGCATACAGTGCGAAT | 6.04 |
| CGAACTAGGTCACCAGGGCAGTGAAGAGGTTGGA | 1.52 |
| CAAACTAGGTCAAAGGTCAACGTCGAGCCAACCA | 7.01 |
| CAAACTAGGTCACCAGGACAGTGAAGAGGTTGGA | 1.92 |
| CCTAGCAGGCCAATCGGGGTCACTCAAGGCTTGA | 3.97 |
| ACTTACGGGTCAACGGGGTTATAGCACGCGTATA | 5 |
| CAAACTAGGTCAAAGGTCAAGGTCGAGCCAACCA | 6.8 |
| TTACCAAGGTAAAAGGTCGTTGATGCACGCCTTG | 2.25 |
| CGAACTAGGTCACCAGGACAGTGACGAGGTTGGA | 1.53 |
| ACTAATTGGTCAGCTGAGGTCACACACAATTCGG | 3.68 |
| AGAATGGGGTTAAGATCAGGGAAACAGAATACAT | 4.19 |
| CGAACTAGGTCACTAGGACAGTGAAGAGGTTGGA | 0.869 |
| CGAACTAGGTCAAACGACAGTGAAAGGCGACGTA | 2.12 |
| CGTCCAAGGTCATAGGAGGTCATTGAAGACAGAT | 6.99 |
| CTAAGTAGGTTAAGGGGGTCATTCAGTTTGAAAG | 6.08 |
| CGAACTAGGTCACCAGGACAGAGAAGAGGTTGGA | 1.71 |
| TCGAGTAGGTTACGGGGGCAGTCAGGGATGAAGA | 4.55 |
| CGAACTCGGTCAAAGGACAGTGAAAGGCGACGTA | -0.0802 |
| AGTCAAAGTTCATCTAGGTAACGAAAGATATGCT | 3.86 |
| CGTCCAAGGTCAAAGGTCAGTAAAGAGATGACGG | 6.62 |
| ATATGTAGGTTAGGGTGATTCAGAAAGTAGGGAA | 1.83 |
| GCTGCTAGGTCAGGTTGGTCAACTAACGGGTACG | 0.695 |
| CTATGTAGGTTAAGGGGGTCATCCAGTTTGAAAG | 6.27 |
| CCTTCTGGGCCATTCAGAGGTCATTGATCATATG | 3.99 |
| CGAACTAGGTCACCAGGACACTGAAGAGGTTGGA | 1.95 |
| ACTAGTTGGTCAGCTGAGGTCACACACAATTCGG | 3.8 |

###

System: PPARa:RXRa (NR concentration 270 nM, RXRa partner concentration 90 nM)
assay explanation: PBM binding z-score (relative to random genomic background probes); higher = stronger binding; sequences stand for … in GC…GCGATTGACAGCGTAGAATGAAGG
PBM binding z-score for assorted sequences

| sequence input | target of assay | PBM binding z-score |
| --- | --- | --- |
| AATACAGGGTCACTAGGCCAGAGTGGGTACGAAT | PPARa:RXRa (NR concentration 270 nM, RXRa partner concentration 90 nM) | 5.69 |
| CGAACTAGGTCACCAGGACAGTGAAGAGGTTGGA | PPARa:RXRa (NR concentration 270 nM, RXRa partner concentration 90 nM) | 5.04 |
| GATACAGGGTCAGCTAGAGGGCAGAGTATGGAAA | PPARa:RXRa (NR concentration 270 nM, RXRa partner concentration 90 nM) | 4.5 |
| CCTAGCAGGCCAGGGTCACCCAAGCATTTCGCTT | PPARa:RXRa (NR concentration 270 nM, RXRa partner concentration 90 nM) | 3.82 |
| ACTAACAGGCCAAGGGTCACTCAAGATTAGTCCG | PPARa:RXRa (NR concentration 270 nM, RXRa partner concentration 90 nM) | 4.35 |
| CGAACTAGGTCACCGGGACAGTGAAGAGGTTGGA | PPARa:RXRa (NR concentration 270 nM, RXRa partner concentration 90 nM) | 5.58 |

###

PBM binding z-score for assorted sequences
Tested on: RARb homodimer (NR concentration 270 nM)
assay explanation: PBM binding z-score (relative to random genomic background probes); higher = stronger binding; sequences stand for … in GC…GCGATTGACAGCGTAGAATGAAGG
reported endpoint: PBM binding z-score

| sequence input | reported endpoint | assay value |
| --- | --- | --- |
| CAAACTAGGTCACGAAAGGGCAAAGTCGAATGAC | PBM binding z-score | 4.43 |
| CCTAGTTGGTCAGGAGGTCACAAACCGGATATGA | PBM binding z-score | 3.97 |
| CGAACTAGGTCAAAGGTCAGTGAAAGGCGACGTA | PBM binding z-score | 5.03 |
| TCGAGTAGGTTACGGGGGCAATCAGGGATGAAGA | PBM binding z-score | 2.12 |
| TTACCAAGGTGAAAGGTCGTTGAAGCACGCCTTG | PBM binding z-score | 2.64 |
| CCCACTGGGCCATTCAGAGGTCATTGATCATATG | PBM binding z-score | 4.3 |
| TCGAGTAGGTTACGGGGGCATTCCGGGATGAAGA | PBM binding z-score | 2.02 |
| TTACCGAGGTGAAAGGTCGTTGATGCACGCCTTG | PBM binding z-score | 2.67 |
| CCTACTGGGGCACGAAAGGTCATTGATTCAGTGA | PBM binding z-score | 4.81 |
| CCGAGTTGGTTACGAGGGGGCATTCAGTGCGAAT | PBM binding z-score | 1.81 |
| CGAACTAGGTCACCACGACAGTGAAGAGGTTGGA | PBM binding z-score | 3.15 |
| CTAGGTAGGTTAAGGGGGTCATTCAGTTTGAAAG | PBM binding z-score | 3.87 |
| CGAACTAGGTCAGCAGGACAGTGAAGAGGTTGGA | PBM binding z-score | 2.84 |
| CCGAGTAGGTTACGTGGGGGCATTCAGTGCGAAT | PBM binding z-score | 2.1 |
| CCTTACGGGTCACTCTAGGTTATAGCATCGGAGT | PBM binding z-score | 3.22 |
| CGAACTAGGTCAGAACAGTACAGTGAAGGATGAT | PBM binding z-score | 1.96 |
| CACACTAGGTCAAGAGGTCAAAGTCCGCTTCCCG | PBM binding z-score | 5.71 |
| AGTCAAAGTTCACGACGAGGTAACGTAAAGCACG | PBM binding z-score | 4.35 |
| CCTACGGGGCCAAGGTCATTGATCAGTCAAAGCA | PBM binding z-score | 3.51 |
| ATCGAAAGGTCGAGTTGAGTATAGAGAAAGGGAA | PBM binding z-score | 2.39 |
| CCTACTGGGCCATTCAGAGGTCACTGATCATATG | PBM binding z-score | 4.51 |
| TCGAGTAGGCTACGGGGGCATTCAGGGATGAAGA | PBM binding z-score | 1.01 |
| CGAACTAGGTCAAAGGACAGTGCAAGGCGACGTA | PBM binding z-score | 3.1 |
| CCTACTGGGCCAAAGGTCCTTGATTCCAATGCTC | PBM binding z-score | 0.379 |
| CGTCCAAGGTCAATGCGAGGTCAGTGAAAGCATT | PBM binding z-score | 5.27 |
| ACTAGGTGGTCAGCTGAGGTCACACACAATTCGG | PBM binding z-score | 4.47 |
